Target: PLCγ1^wt (Homo sapiens, UniProt P19174, I813T)
Construct: specific activities of PLCγ1^wt and PLCγ2^wt full-length proteins; made in house; host or cells: Escherichia coli T7 Express lysY/Iq
Sequence (P19174 1-1291 isoform P19174-2 I813T): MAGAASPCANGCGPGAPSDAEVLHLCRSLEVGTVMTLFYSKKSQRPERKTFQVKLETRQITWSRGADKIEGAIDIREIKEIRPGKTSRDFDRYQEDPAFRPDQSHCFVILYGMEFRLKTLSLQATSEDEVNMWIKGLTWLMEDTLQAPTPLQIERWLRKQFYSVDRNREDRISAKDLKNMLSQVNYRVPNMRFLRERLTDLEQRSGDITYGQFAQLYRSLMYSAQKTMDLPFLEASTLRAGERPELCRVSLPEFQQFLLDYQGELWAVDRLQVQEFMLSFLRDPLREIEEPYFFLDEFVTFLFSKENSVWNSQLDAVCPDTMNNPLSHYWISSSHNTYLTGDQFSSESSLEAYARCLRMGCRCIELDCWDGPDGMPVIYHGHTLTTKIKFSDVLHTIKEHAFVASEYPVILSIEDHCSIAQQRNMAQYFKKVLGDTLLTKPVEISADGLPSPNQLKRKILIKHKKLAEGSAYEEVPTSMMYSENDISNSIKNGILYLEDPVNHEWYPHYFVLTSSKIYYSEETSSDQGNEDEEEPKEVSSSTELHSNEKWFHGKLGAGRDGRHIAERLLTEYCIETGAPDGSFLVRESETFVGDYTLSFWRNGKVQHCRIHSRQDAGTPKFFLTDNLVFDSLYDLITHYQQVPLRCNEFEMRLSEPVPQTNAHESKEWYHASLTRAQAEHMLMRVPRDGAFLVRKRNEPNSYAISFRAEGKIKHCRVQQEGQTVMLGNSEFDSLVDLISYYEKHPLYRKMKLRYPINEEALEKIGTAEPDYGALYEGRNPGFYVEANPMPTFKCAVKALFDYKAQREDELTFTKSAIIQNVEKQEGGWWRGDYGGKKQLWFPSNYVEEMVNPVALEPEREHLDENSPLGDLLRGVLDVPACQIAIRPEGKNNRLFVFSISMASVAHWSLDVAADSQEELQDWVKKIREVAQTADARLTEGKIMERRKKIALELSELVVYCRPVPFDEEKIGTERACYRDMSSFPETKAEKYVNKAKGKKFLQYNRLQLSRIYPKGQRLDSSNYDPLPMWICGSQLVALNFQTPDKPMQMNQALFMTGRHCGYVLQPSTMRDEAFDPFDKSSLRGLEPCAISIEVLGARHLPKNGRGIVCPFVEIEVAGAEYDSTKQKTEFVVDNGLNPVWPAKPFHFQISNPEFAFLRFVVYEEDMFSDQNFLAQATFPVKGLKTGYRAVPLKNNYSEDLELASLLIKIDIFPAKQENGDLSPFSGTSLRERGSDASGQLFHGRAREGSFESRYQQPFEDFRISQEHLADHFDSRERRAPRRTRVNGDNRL
Assay: Saturation transfer difference (STD) NMR binding
Settings: STD amplification factor vs ADP concentration; likely an overestimate; read-out: Kd, STD-NMR, H2 resonance
OBSERVATION TYPE: Kd

1) Nc1ncnc2c1ncn2[C@@H]1O[C@H](COP(=O)(O)OP(=O)(O)O)[C@@H](O)[C@H]1O ~196 µM

====

Form field: pKd (one value per entry).
Target: PLCγ1^wt (Homo sapiens, UniProt P19174, I813T)
Construct: specific activities of PLCγ1^wt and PLCγ2^wt full-length proteins; made in house; host or cells: Escherichia coli T7 Express lysY/Iq
Assay: Microscale thermophoresis (MST) binding
Conditions: one-site binding model
pKd: −log10 of the molar value.
OBSERVATION TYPE: pKd

1) Nc1ncnc2c1ncn2[C@@H]1O[C@H](COP(=O)(O)OP(=O)(O)OP(=O)(O)O)[C@@H](O)[C@H]1O 4.30 to 4.52
2) Nc1ncnc2c1ncn2[C@@H]1O[C@H](COP(=O)(O)OP(=O)(O)O)[C@@H](O)[C@H]1O 4.30 to 4.52

====

Molecular target: PLCγ1^K491D (Homo sapiens, UniProt P19174, I813T/K491D)
Sequence (P19174 1-1291 isoform P19174-2 K491D/I813T): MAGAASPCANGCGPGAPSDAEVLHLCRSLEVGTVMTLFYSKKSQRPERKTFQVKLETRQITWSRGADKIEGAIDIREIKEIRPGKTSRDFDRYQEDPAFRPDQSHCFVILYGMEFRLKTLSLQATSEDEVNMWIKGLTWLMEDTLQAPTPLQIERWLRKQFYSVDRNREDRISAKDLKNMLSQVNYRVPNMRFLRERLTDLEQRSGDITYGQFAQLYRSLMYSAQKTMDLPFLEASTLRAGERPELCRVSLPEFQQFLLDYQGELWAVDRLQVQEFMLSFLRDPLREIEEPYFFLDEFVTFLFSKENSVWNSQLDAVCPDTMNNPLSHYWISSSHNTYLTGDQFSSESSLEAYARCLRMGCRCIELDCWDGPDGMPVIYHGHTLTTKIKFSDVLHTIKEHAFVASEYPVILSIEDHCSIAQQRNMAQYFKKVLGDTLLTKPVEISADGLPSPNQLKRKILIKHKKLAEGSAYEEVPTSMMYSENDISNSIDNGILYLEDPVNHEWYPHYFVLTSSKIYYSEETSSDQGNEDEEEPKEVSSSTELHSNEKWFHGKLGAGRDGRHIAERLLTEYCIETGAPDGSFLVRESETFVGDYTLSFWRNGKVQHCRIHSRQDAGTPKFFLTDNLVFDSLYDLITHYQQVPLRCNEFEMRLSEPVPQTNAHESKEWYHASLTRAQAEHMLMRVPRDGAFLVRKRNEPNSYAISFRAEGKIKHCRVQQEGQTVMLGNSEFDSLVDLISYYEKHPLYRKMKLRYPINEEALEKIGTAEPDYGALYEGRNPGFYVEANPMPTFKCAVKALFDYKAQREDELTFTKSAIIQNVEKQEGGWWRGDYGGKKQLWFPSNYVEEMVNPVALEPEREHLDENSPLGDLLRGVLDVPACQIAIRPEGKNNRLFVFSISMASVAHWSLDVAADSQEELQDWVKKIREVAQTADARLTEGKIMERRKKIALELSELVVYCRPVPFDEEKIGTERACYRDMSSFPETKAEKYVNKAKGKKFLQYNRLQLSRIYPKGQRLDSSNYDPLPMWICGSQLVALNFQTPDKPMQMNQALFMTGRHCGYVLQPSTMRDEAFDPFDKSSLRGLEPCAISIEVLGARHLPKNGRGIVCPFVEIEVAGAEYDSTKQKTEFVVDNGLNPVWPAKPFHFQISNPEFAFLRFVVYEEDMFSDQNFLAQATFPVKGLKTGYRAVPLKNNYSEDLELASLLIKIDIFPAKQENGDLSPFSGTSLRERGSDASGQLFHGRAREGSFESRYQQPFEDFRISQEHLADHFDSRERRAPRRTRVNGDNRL
Experiment: Microscale thermophoresis (MST) binding, K491D variant
Conditions: read-out: estimated Kd, MST, PLCγ1^K491D
Protocol: Proteins were diluted to 200 nM in MST buffer [50 mM Hepes.KOH, 70 mM KCl, 5% (v/v) glycerol, 0.05% (v/v) Tween-20, 2 mM DTT (pH 7.5)] and subsequently labelled by adding an equal volume of 100 nM 2nd generation RED-Tris-NTA labelling dye and incubating for 30 minutes. […] Samples were measured in a Monolith NT.115 pico instrument (Nanotemper) using the Nano-RED channel. […]
Quick list: Kd per entry.
OBSERVATION TYPE: Kd

1. Nc1ncnc2c1ncn2[C@@H]1O[C@H](COP(=O)(O)OP(=O)(O)O)[C@@H](O)[C@H]1O 1000 to 2000 µM
2. Nc1ncnc2c1ncn2[C@@H]1O[C@H](COP(=O)(O)OP(=O)(O)OP(=O)(O)O)[C@@H](O)[C@H]1O ~700 µM

====

Target: PLCγ1^S345F (Homo sapiens, UniProt P19174, S345F)
Construct: Avi-tag (N); His-tag (N)
Sequence (P19174 whole entry S345F): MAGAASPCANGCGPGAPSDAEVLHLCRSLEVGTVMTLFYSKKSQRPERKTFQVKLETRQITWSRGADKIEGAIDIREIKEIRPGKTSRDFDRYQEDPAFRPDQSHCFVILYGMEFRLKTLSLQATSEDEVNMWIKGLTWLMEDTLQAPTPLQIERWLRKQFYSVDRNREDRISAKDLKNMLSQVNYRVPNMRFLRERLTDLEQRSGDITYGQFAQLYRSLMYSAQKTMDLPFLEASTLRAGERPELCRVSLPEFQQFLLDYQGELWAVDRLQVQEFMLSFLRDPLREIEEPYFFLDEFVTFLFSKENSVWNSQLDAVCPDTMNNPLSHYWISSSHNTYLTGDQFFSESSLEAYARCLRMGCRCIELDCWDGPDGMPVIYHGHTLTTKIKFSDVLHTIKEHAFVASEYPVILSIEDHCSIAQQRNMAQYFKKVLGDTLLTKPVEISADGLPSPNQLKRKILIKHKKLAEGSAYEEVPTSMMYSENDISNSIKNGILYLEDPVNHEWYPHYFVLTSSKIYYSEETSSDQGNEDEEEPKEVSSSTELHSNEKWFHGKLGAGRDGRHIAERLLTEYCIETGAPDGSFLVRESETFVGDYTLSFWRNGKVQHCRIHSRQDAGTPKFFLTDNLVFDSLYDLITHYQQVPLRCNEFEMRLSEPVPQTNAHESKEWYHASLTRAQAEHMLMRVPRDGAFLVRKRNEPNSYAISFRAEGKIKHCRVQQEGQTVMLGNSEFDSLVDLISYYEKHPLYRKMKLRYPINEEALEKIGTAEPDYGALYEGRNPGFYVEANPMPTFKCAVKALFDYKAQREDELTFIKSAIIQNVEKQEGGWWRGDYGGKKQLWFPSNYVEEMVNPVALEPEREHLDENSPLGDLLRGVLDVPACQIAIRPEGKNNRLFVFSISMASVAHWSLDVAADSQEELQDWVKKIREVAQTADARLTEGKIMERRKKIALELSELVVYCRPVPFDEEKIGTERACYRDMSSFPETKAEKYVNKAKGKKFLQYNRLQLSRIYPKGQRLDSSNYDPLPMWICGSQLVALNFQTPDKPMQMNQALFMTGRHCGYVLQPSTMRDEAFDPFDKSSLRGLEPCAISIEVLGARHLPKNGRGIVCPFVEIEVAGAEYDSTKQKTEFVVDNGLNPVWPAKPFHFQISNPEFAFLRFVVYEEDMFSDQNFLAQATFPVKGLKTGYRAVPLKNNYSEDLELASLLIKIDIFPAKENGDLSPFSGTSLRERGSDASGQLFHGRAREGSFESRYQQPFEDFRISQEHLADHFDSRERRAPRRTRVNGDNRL
Assay: IP-ONE assay in HEK stable cell line expressing PLCγ1^S345F
Settings: PLCγ1 S345F, read-out: IC50, PLC activity (IP1) in stable cell line
Description: For generating HEK cell lines that stably express PLC variants, an in-house Gateway compatible, Lenti viral vector was generated using In-Fusion cloning (Takara Bio) following manufacturer’s protocols. The vector backbone consisted of pLenti PGK Puro DEST (Addgene 19068). […] Stable cell lines overexpressing PLCγ1^S345F or PLCδ1^Δ44 were prepared as described in [28]. […] Fluorescence-activated cell sorting (FACS) was used to select the top 10% of GFP-expressing cells. […]
pIC50: −log10 of the molar value.
OBSERVATION TYPE: pIC50

1) CC(=O)OC[C@H]1O[C@@H](n2ncc(=O)[nH]c2=O)[C@H](OC(C)=O)[C@@H]1OC(C)=O 5.80

====

Target: PLCγ1^wt (Homo sapiens, UniProt P19174, I813T)
Construct: specific activities of PLCγ1^wt and PLCγ2^wt full-length proteins
Test: PLC activity assay 1 (A1), XY-69 substrate in liposomes, nucleotide inhibition
Conditions: XY-69 in liposomes, mean and SD, nine replicates
pIC50: −log10 of the molar value.
OBSERVATION TYPE: pIC50

1) Nc1ncnc2c1ncn2[C@@H]1O[C@H](COP(=O)(O)OP(=O)(O)O)[C@@H](O)[C@H]1O 4.70 to 6.00
2) Nc1ncnc2c1ncn2[C@@H]1O[C@H](COP(=O)(O)OP(=O)(O)OP(=O)(O)O)[C@@H](O)[C@H]1O 4.70 to 6.00
